Numbers sourced from paper PMC4872389.

- protocol notes: Plasma and tissue D, DA, DOH after sub-chronic dietary AGN exposure
- Assay type: in vivo, male C57BL/6J mice
- experimental conditions: male, C57BL/6J, mouse, plasma, oral, 1 % AGN in diet
measured attribute: concentration at 6 weeks
Include the unit right after the number.

Query: Given the compound CC1(C)Oc2cc3oc(=O)ccc3cc2C[C@@H]1O , write its reported concentration at 6 weeks.
Response: 2440 nM

* * *

- protocol notes: Plasma and tissue D, DA, DOH after sub-chronic dietary AGN exposure
- Type: in vivo, male C57BL/6J mice
- experimental conditions: male, C57BL/6J, mouse, liver, oral
measured attribute: concentration at 6 weeks (µM)
# unit: µM | format: bare number

Query: Given the compound CC1(C)Oc2cc3oc(=O)ccc3cc2C[C@@H]1O [DOH, decursinol] , write its reported concentration at 6 weeks.
Response: 41.1
